Source: PubChem BioAssay

biological target: Torsin-1A-interacting protein 2 (Homo sapiens); experiment: LULL1 binders on small-molecule microarray, primary screen, cell lysate, human LULL1 lysate, 635/667 nm fluorescence (AID 1092); conditions: hLULL1 lysate binding, 635 nm fluorescence, higher = more signal;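 note: probe is lysate of COS7 cells overexpressing human LULL1; score merges per-feature 667 nm fluorescence with signal-to-noise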
composite z-score for assorted compounds
Measured attribute: composite z-score

[[record]]
compound = "C=CC[C@@H]1C=C[C@H](ON=C[C@@H](OC)[C@H](C)C=CCC(=O)OC)[C@@H](CO)O1"
result = 0.485

[[record]]
compound = "O=C1O[C@@H](c2ccccc2)[C@@H](c2ccccc2)N2[C@@H](c3ccccc3OCCO)[C@]3(C(=O)Nc4ccc(C#CCCO)cc43)[C@@H](C(=O)O)[C@H]12"
result = 2.47

[[record]]
compound = "CC=CC1=C(CO)[C@H](O)[C@H]2O[C@H]2[C@H]1O"
result = -0.0789

[[record]]
compound = "CC(=O)OC[C@H]1O[C@@H](ON=C(C)CCN2CCc3nc(-c4ccccc4)c(-c4ccccc4)cc3C2)[C@H](OC(C)=O)[C@@H](OC(C)=O)[C@@H]1OC(C)=O"
result = 2.27

[[record]]
compound = "COC(=O)[C@H](C)NC(=O)CCC1CC(OC(=O)NCCc2ccc(F)cc2)CC2(CCCC(COC(=O)NCC(c3ccccc3)c3ccccc3)O2)O1 (stereo partly specified)"
result = 1.88

[[record]]
compound = "C=C(CCCC)C(=O)CC[C@@H](OC(C)=O)c1cccc(OCCO)c1"
result = 0.0116

[[record]]
compound = "COC(=O)[C@]1(CO)N=C(c2ccc(OCCCO)cc2)O[C@@H]1c1ccccc1N=[N+]=[N-]"
result = 3.19

[[record]]
compound = "COCC(=C=CC[C@@H](O)c1ccccc1OCCO)CCO"
result = 2.36

[[record]]
compound = "C#C[C@@H](CC)O[Si](C#Cc1ccc(Oc2ccccc2)cc1)(C(C)C)C(C)C"
result = 0.964

[[record]]
compound = "Cn1c(=O)n2n(c1=O)[C@H]1[C@H](O)[C@@H]3O[C@@H]3C(=NOC[C@@H](O)COCc3ccco3)[C@H]1CC2"
result = 0.14

[[record]]
compound = "COCC1=C2[C@@H](CCc3ccccc3)OB(O)C[C@@H]2n2c(=O)n(-c3ccccc3)c(=O)n2C1"
result = 0.332

[[record]]
compound = "O=C1C2=CC[C@H]3C(=O)N(Cc4ccc5c(c4)OCO5)C(=O)[C@H]3[C@H]2[C@H](O)[C@@H]2O[C@H]12"
result = 0.24

[[record]]
compound = "CC(C)(C)N1C(=O)[C@H]2[C@H]3[C@H](O)[C@H](O)CC(=NOCc4ccccc4)[C@@H]3CC[C@H]2C1=O"
result = 1.16

[[record]]
compound = "CO[C@H]1COC(=O)[C@H](C)COC(=O)CC=C[C@@H](C)[C@H](OC)COC(=O)CC=C[C@@H]1C"
result = -0.798

[[record]]
compound = "CO[C@@H]1COC(=O)CC=C[C@@H](C)[C@@H]2C=C[C@H](O)[C@@H](COC(=O)[C@H](C)NC(=O)CC=C[C@H]1C)O2"
result = -0.75

[[record]]
compound = "COCCCNC(=O)[C@@]1(CCS(=O)(=O)c2ccccc2)N=C(c2ccc(OCCCO)cc2)O[C@H]1c1ccccc1"
result = 3.43

